All values here come from paper PMC8185074.

What HDAC6 activity raw data (signal) was measured for each of the following?
Target: HDAC6 (Homo sapiens, UniProt Q9UBN7)
Construct: purchased Reaction Biology Corporation (assay run by the CRO)
Sequence (Q9UBN7 whole entry): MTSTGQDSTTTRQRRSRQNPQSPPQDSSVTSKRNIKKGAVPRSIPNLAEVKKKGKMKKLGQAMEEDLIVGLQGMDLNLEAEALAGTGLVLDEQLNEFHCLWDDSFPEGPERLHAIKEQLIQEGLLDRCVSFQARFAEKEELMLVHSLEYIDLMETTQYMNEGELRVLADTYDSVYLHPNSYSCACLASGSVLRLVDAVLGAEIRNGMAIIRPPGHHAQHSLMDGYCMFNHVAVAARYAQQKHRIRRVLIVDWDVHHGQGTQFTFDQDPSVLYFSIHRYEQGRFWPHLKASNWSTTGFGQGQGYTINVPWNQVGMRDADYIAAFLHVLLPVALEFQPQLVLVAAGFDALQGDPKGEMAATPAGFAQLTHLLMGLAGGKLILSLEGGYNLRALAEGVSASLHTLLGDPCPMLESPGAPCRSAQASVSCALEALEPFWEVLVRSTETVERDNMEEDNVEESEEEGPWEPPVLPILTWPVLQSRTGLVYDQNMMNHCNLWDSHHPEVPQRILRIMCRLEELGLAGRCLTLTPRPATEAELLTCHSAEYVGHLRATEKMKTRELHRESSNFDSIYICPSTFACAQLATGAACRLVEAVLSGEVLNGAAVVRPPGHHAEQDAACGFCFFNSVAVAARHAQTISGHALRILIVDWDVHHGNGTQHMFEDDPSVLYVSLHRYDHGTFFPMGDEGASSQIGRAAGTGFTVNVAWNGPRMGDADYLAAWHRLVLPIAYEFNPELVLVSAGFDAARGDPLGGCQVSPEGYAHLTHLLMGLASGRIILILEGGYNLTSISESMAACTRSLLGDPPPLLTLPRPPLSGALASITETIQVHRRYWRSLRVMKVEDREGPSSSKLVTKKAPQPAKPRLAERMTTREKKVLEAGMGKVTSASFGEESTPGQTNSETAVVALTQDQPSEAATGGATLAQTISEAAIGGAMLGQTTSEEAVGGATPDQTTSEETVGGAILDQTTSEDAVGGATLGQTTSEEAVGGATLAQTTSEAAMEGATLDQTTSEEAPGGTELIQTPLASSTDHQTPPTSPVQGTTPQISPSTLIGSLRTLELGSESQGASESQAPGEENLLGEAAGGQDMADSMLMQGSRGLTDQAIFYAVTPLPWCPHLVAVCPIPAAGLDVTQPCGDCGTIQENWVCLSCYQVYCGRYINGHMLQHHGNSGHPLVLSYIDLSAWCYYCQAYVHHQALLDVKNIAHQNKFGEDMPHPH
Assay: HDAC6 inhibition, full IC50 measurement (Reaction Biology; fluorogenic p53 peptide RHKK(Ac)AMC)
Format: biochemical
Conditions: Conc. 4.12E-08 M, t1
Peptide text beside a SMILES is read from it.
Numbers only.

Study these solved cases before continuing.
>>> measured_number("CC(C)C[C@H]1NC(=O)[C@H](Cc2c[nH]c3ccccc23)NC(=O)[C@H](CCCCCS)NC(=O)[C@@H](Cc2ccc(O)cc2)NC(=O)[C@@H](C(C)C)NC(=O)[C@H](Cc2c[nH]cn2)NC(=O)CNC(=O)CNC(=O)[C@@H](CO)NC1=O [des2.2.0, SHA-Trp-dLeu-dSer-Gly-Gly-His-dVal-dTyr] (HELM PEPTIDE1{G.G.H.[dV].[dY].[O=C([C@H](CCCCCS)N[*:1])[*:2]].W.[dL].[dS]}$PEPTIDE1,PEPTIDE1,1:R1-9:R2$$$V2.0)")
140481
>>> measured_number("N=C(N)NCCC[C@H]1NC(=O)[C@@H]2CCCN2C(=O)[C@H](CO)NC(=O)[C@@H](Cc2c[nH]cn2)NC(=O)[C@H](CCCCCS)NC(=O)[C@H](CCCCN)NC(=O)[C@H](Cc2ccc(O)cc2)NC(=O)[C@H]2CCCN2C(=O)[C@@H](CCC(N)=O)NC1=O [des3.1.0, SHA-dHis-Ser-Pro-dArg-dGln-dPro-Tyr-Lys] (HELM PEPTIDE1{K.[O=C([C@H](CCCCCS)N[*:1])[*:2]].[dH].S.P.[dR].[dQ].[dP].Y}$PEPTIDE1,PEPTIDE1,1:R1-9:R2$$$V2.0)")
144961
>>> measured_number("N=C(N)NCCC[C@@H]1NC(=O)[C@@H](CCCNC(=N)N)NC(=O)[C@H]2CCCN2C(=O)[C@@H](Cc2c[nH]cn2)NC(=O)[C@H](Cc2ccc(O)cc2)NC(=O)[C@H](CCCCCS)NC(=O)[C@H](CCc2ccccc2)NC(=O)[C@@H](CO)NC(=O)[C@H](CC(=O)O)NC1=O [des3.3.1, SHA-Tyr-dHis-dPro-dArg-Arg-Asp-dSer-C27] (HELM PEPTIDE1{[O=C([C@H](CCCCCS)N[*:1])[*:2]].Y.[dH].[dP].[dR].R.D.[dS].[O=C([C@H](CCc1ccccc1)N[*:1])[*:2]]}$PEPTIDE1,PEPTIDE1,1:R1-9:R2$$$V2.0)")
50772
>>> measured_number("NCCCC[C@@H]1NC(=O)[C@@H]2CCCN2C(=O)[C@H](CC(N)=O)NC(=O)[C@H](CCCCCS)NC(=O)CNC(=O)[C@H](Cc2c[nH]c3ccccc23)NC(=O)[C@@H](CCCCN)NC(=O)[C@H](CCC(N)=O)NC1=O [des1.1.0, SHA-Asn-Pro-Lys-Gln-dLys-Trp-Gly] (HELM PEPTIDE1{G.[O=C([C@H](CCCCCS)N[*:1])[*:2]].N.P.K.Q.[dK].W}$PEPTIDE1,PEPTIDE1,1:R1-8:R2$$$V2.0)")
251632
>>> measured_number("NCCCC[C@@H]1NC(=O)[C@@H]2C[C@@H](O)CN2C(=O)[C@H](CC(N)=O)NC(=O)[C@H](CCCCCS)NC(=O)CNC(=O)[C@H](Cc2c[nH]c3ccccc23)NC(=O)[C@@H](CCCCN)NC(=O)[C@H](CCC(N)=O)NC1=O [des1.1.2, SHA-Asn-Hpr-Lys-Gln-dLys-Trp-Gly] (HELM PEPTIDE1{G.[O=C([C@H](CCCCCS)N[*:1])[*:2]].N.[Hyp].K.Q.[dK].W}$PEPTIDE1,PEPTIDE1,1:R1-8:R2$$$V2.0)")
256776

# batch size: 4; output HDAC6 activity raw data (signal) per entry
1. CC(C)[C@@H]1NC(=O)[C@H](CCCNC(=N)N)NC(=O)[C@@H](CC(=O)O)NC(=O)[C@H](CO)NC(=O)[C@@H](CO)NC(=O)[C@@H](CCC(=O)O)NC(=O)[C@H](Cc2ccc(O)cc2)NC(=O)[C@H](CCCCCS)NC1=O [des4.2.0, SHA-Tyr-dGlu-dSer-Ser-dAsp-Arg-Val] (HELM PEPTIDE1{R.V.[O=C([C@H](CCCCCS)N[*:1])[*:2]].Y.[dE].[dS].S.[dD]}$PEPTIDE1,PEPTIDE1,1:R1-8:R2$$$V2.0)
2. CCCC[C@H]1NC(=O)[C@H](Cc2ccccc2)NC(=O)[C@H](CCCCCS)NC(=O)[C@@H](CO)NC(=O)[C@H](CC(=O)O)NC(=O)[C@@H](CO)NC(=O)[C@@H](C)NC(=O)[C@H](CCCCN)NC1=O [des4.3.1.1, SHA-Phe-dNle-Lys-dAla-dSer-Asp-dSer] (HELM PEPTIDE1{D.[dS].[O=C([C@H](CCCCCS)N[*:1])[*:2]].F.[CCCC[C@@H](N[*:1])C(=O)[*:2]].K.[dA].[dS]}$PEPTIDE1,PEPTIDE1,1:R1-8:R2$$$V2.0)
3. CCCC[C@H]1NC(=O)[C@H](Cc2ccccc2)NC(=O)[C@H](CCCCCS)NC(=O)[C@@H](CCCNC(=N)N)NC(=O)[C@H](C)NC(=O)[C@@H](CO)NC(=O)[C@@H](C)NC(=O)[C@H](CCCCN)NC1=O [des4.3.1.3, SHA-Phe-dNle-Lys-dAla-dSer-Ala-dArg] (HELM PEPTIDE1{A.[dR].[O=C([C@H](CCCCCS)N[*:1])[*:2]].F.[CCCC[C@@H](N[*:1])C(=O)[*:2]].K.[dA].[dS]}$PEPTIDE1,PEPTIDE1,1:R1-8:R2$$$V2.0)
4. NCCCC[C@H]1NC(=O)[C@H](CCC(N)=O)NC(=O)[C@H](CCC(=O)O)NC(=O)[C@@H]2CCCN2C(=O)[C@H](CC(N)=O)NC(=O)[C@H](CCCCCS)NC(=O)CNC(=O)[C@H](Cc2c[nH]c3ccccc23)NC1=O [des1.1.1, SHA-Asn-Pro-Glu-Gln-dLys-Trp-Gly] (HELM PEPTIDE1{E.Q.[dK].W.G.[O=C([C@H](CCCCCS)N[*:1])[*:2]].N.P}$PEPTIDE1,PEPTIDE1,1:R1-8:R2$$$V2.0)

Result:
459108
1459081
363100
327835

====

Biological target: HDAC2 (Homo sapiens, UniProt Q92769)
Construct: purchased Reaction Biology Corporation (assay run by the CRO)
Sequence (Q92769 whole entry): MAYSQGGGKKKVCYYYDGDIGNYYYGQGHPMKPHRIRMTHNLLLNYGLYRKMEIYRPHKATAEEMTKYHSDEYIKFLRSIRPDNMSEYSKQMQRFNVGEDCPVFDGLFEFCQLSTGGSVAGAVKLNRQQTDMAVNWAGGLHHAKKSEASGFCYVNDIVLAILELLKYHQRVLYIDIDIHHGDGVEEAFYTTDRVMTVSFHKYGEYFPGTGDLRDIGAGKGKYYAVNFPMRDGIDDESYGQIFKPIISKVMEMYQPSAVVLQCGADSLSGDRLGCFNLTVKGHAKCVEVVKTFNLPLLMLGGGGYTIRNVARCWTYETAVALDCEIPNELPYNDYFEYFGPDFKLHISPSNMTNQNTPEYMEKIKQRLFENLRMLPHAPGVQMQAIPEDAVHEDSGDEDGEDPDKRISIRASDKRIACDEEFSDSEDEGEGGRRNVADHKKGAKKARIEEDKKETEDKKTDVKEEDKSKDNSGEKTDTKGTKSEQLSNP
Experiment: HDAC2 inhibition, full IC50 measurement (Reaction Biology; fluorogenic p53 peptide RHKK(Ac)AMC)
Type: biochemical
Details: Conc. 1.37E-08 M, t1
Peptide text beside a SMILES is read from it.
What HDAC2 activity raw data (signal) was measured for each of the following?
Numbers only.

Study these solved cases before continuing.
>>> measured_number("N=C(N)NCCC[C@@H]1NC(=O)[C@H](Cc2c[nH]c3ccccc23)NC(=O)[C@H](CC(=O)O)NC(=O)[C@@H](CO)NC(=O)[C@H](Cc2c[nH]c3ccccc23)NC(=O)[C@H](CCCCCS)NC(=O)[C@H](CCC(N)=O)NC1=O [des4.1.0, SHA-Trp-dSer-Asp-Trp-Arg-Gln] (HELM PEPTIDE1{D.W.R.Q.[O=C([C@H](CCCCCS)N[*:1])[*:2]].W.[dS]}$PEPTIDE1,PEPTIDE1,1:R1-7:R2$$$V2.0)")
1715554
>>> measured_number("N=C(N)NCCC[C@H]1NC(=O)[C@@H]2CCCN2C(=O)[C@H](CO)NC(=O)[C@@H](Cc2c[nH]cn2)NC(=O)[C@H](CCCCCS)NC(=O)[C@H](CCCCN)NC(=O)[C@H](Cc2ccc(O)cc2)NC(=O)[C@H]2CCCN2C(=O)[C@@H](CCC(N)=O)NC1=O [des3.1.0, SHA-dHis-Ser-Pro-dArg-dGln-dPro-Tyr-Lys] (HELM PEPTIDE1{K.[O=C([C@H](CCCCCS)N[*:1])[*:2]].[dH].S.P.[dR].[dQ].[dP].Y}$PEPTIDE1,PEPTIDE1,1:R1-9:R2$$$V2.0)")
729280
>>> measured_number("CC(C)[C@@H]1NC(=O)[C@H](CCCNC(=N)N)NC(=O)[C@@H](CC(=O)O)NC(=O)[C@H](CO)NC(=O)[C@@H](CO)NC(=O)[C@@H](CCC(=O)O)NC(=O)[C@H](Cc2ccc(O)cc2)NC(=O)[C@H](CCCCCS)NC1=O [des4.2.0, SHA-Tyr-dGlu-dSer-Ser-dAsp-Arg-Val] (HELM PEPTIDE1{R.V.[O=C([C@H](CCCCCS)N[*:1])[*:2]].Y.[dE].[dS].S.[dD]}$PEPTIDE1,PEPTIDE1,1:R1-8:R2$$$V2.0)")
1586330
>>> measured_number("NCCCC[C@@H]1NC(=O)[C@@H]2CCCN2C(=O)[C@H](CC(N)=O)NC(=O)[C@H](CCCCCS)NC(=O)CNC(=O)[C@H](Cc2c[nH]c3ccccc23)NC(=O)[C@@H](CCCCN)NC(=O)[C@H](CCC(N)=O)NC1=O [des1.1.0, SHA-Asn-Pro-Lys-Gln-dLys-Trp-Gly] (HELM PEPTIDE1{G.[O=C([C@H](CCCCCS)N[*:1])[*:2]].N.P.K.Q.[dK].W}$PEPTIDE1,PEPTIDE1,1:R1-8:R2$$$V2.0)")
1027147
>>> measured_number("NCCCC[C@@H]1NC(=O)[C@@H]2C[C@@H](O)CN2C(=O)[C@H](CC(N)=O)NC(=O)[C@H](CCCCCS)NC(=O)CNC(=O)[C@H](Cc2c[nH]c3ccccc23)NC(=O)[C@@H](CCCCN)NC(=O)[C@H](CCC(N)=O)NC1=O [des1.1.2, SHA-Asn-Hpr-Lys-Gln-dLys-Trp-Gly] (HELM PEPTIDE1{G.[O=C([C@H](CCCCCS)N[*:1])[*:2]].N.[Hyp].K.Q.[dK].W}$PEPTIDE1,PEPTIDE1,1:R1-8:R2$$$V2.0)")
962979

Could you now consider this next compound?
Task: Endpoint output: HDAC2 activity raw data (signal) of NCCCC[C@H]1NC(=O)[C@H](CCC(N)=O)NC(=O)[C@H](CCC(=O)O)NC(=O)[C@@H]2CCCN2C(=O)[C@H](CC(N)=O)NC(=O)[C@H](CCCCCS)NC(=O)CNC(=O)[C@H](Cc2c[nH]c3ccccc23)NC1=O [des1.1.1, SHA-Asn-Pro-Glu-Gln-dLys-Trp-Gly] (HELM PEPTIDE1{E.Q.[dK].W.G.[O=C([C@H](CCCCCS)N[*:1])[*:2]].N.P}$PEPTIDE1,PEPTIDE1,1:R1-8:R2$$$V2.0) . Value?
Result: 670648
